Tested on: Mus musculus
PROTOCOL: Tested for its effect on spermatogenic index 3 days after single oral dose (3 mg/kg),
Type: functional
PROPERTY: Reduction (%)

{"MOLECULE": "CCN1CC[C@H]2[C@H](c3ccc(C(=O)O)cc3)c3cc(C)ccc3[C@H]2C1.Cl (stereo in doubt; 10k)", "TARGET OR SYSTEM": "Mus musculus", "READING UNIT": "%", "MEASURED NUMBER": 2}
{"MOLECULE": "CCc1ccc2c(c1)[C@@H](c1ccc(C(=O)OC)cc1)[C@@H]1CCN(CC)C[C@H]21.Cl", "TARGET OR SYSTEM": "Mus musculus", "READING UNIT": "%", "MEASURED NUMBER": 4}
{"MOLECULE": "CCc1ccc2c(c1)[C@@H](c1ccc(C)cc1)[C@@H]1CCN(CC)C[C@H]21.Cl", "TARGET OR SYSTEM": "Mus musculus", "READING UNIT": "%", "MEASURED NUMBER": -2}
{"MOLECULE": "CCN1CCC(C(c2ccc(C)cc2)c2cccc(C)c2)CC1.Cl (stereo not given)", "TARGET OR SYSTEM": "Mus musculus", "READING UNIT": "%", "MEASURED NUMBER": 2}
{"MOLECULE": "CCN1CC[C@H]2[C@H](c3ccc(C=O)cc3)c3cc(C)ccc3[C@H]2C1.Cl", "TARGET OR SYSTEM": "Mus musculus", "READING UNIT": "%", "MEASURED NUMBER": 0}

====

Test system: Mus musculus
PROTOCOL: Tested for its effect on spermatogenic index 3 days after single oral dose (30 mg/kg)
Format: functional

{"COMPOUND": "Cc1ccc([C@@H]2c3cc(C)ccc3[C@H]3CN(C(C)C)CC[C@@H]23)cc1.Cl", "READING UNIT": "%", "Reduction": 28}
{"COMPOUND": "CCN1CCC(C(c2ccc(C)cc2)c2cccc(C)c2)CC1.Cl (configuration not stated)", "READING UNIT": "%", "Reduction": -5}
{"COMPOUND": "CCc1ccc2c(c1)[C@@H](c1ccc(C)cc1)[C@@H]1CCN(CC)C[C@H]21.Cl", "READING UNIT": "%", "Reduction": 33}
{"COMPOUND": "CCc1ccc2c(c1)[C@@H](c1ccc(C(=O)OC)cc1)[C@@H]1CCN(CC)C[C@H]21.Cl", "READING UNIT": "%", "Reduction": 23}
{"COMPOUND": "CCN1CC[C@H]2[C@H](c3ccc(CO)cc3)c3cc(C)ccc3[C@H]2C1.Cl", "READING UNIT": "%", "Reduction": 57}
{"COMPOUND": "CCN1CC[C@H]2[C@H](c3ccc(C(=O)O)cc3)c3cc(C)ccc3[C@H]2C1.Cl (stereo in doubt; (d)-10k)", "READING UNIT": "%", "Reduction": 67}
{"COMPOUND": "CCN1CC[C@H]2[C@H](c3ccc(C)cc3)c3ccccc3[C@H]2C1.Cl", "READING UNIT": "%", "Reduction": 20}

====

System: Mus musculus
PROTOCOL: Tested for its effect on testes weight 3 days after single oral dose (90 mg/kg)
Format: functional, Testis

{"COMPOUND": "CCN1CC[C@H]2[C@H](c3ccc(C)cc3)c3cc(C)ccc3[C@H]2C1.Cl", "Reduction [%]": 4}
{"COMPOUND": "CCN1CC[C@H]2[C@H](c3ccc(C(=O)O)cc3)c3cc(C)ccc3[C@H]2C1.Cl (stereo in doubt; (d)-10k)", "Reduction [%]": 27}
{"COMPOUND": "CCN1CC[C@H]2[C@H](c3ccc(C)cc3)c3ccccc3[C@H]2C1.Cl", "Reduction [%]": 20}
{"COMPOUND": "Cc1ccc([C@@H]2c3cc(C)ccc3[C@H]3CN(C)CC[C@@H]23)cc1.Cl", "Reduction [%]": 8}
{"COMPOUND": "CCN1CC[C@H]2[C@H](c3cccc(C)c3)c3cc(C)ccc3[C@H]2C1.Cl", "Reduction [%]": -11}
{"COMPOUND": "CCN1CC[C@H]2[C@H](c3ccc(C(=O)O)cc3)c3cc(C)ccc3[C@H]2C1.Cl (stereo in doubt; (l)-10k)", "Reduction [%]": -7}
{"COMPOUND": "CCN1CC[C@H]2[C@H](c3ccccc3)c3ccccc3[C@H]2C1.Cl", "Reduction [%]": -2}
{"COMPOUND": "CCN1CCC(=C(c2ccc(C)cc2)c2cccc(C)c2)CC1.Cl", "Reduction [%]": -5}
{"COMPOUND": "CCN1CCC(C(O)c2ccc(C)cc2)C(c2ccc(C)cc2)C1.Cl (stereo in doubt; 16a)", "Reduction [%]": -9}
{"COMPOUND": "CCN1CC[C@H]2[C@H](c3ccc(CO)cc3)c3cc(C)ccc3[C@H]2C1.Cl", "Reduction [%]": 4}
{"COMPOUND": "CCN1CCC(C(O)(c2ccc(C)cc2)c2ccc(C)cc2)CC1.Cl", "Reduction [%]": -21}
{"COMPOUND": "CCN1CC[C@H]2[C@H](c3ccc(F)cc3)c3cc(C)ccc3[C@H]2C1.Cl", "Reduction [%]": 5}
{"COMPOUND": "CCN1CC[C@H]2[C@H](c3ccccc3)c3cc(C)ccc3[C@H]2C1.Cl", "Reduction [%]": -8}
{"COMPOUND": "CCN1CC[C@H]2[C@H](c3ccccc3C)c3cc(C)ccc3[C@H]2C1.Cl", "Reduction [%]": 3}
{"COMPOUND": "CCN1CC[C@H]2[C@H](c3ccc(C#N)cc3)c3cc(C)ccc3[C@H]2C1.Cl", "Reduction [%]": 13}
{"COMPOUND": "CCN1CC[C@@H]2[C@@H](c3ccc(C)cc3)c3cc(C)ccc3[C@H]2C1.Cl", "Reduction [%]": -18}
{"COMPOUND": "Cc1ccc([C@@H]2c3cc(C)ccc3[C@H]3CN(C(C)C)CC[C@@H]23)cc1.Cl", "Reduction [%]": 23}

====

# Reduction per record follows
Tested on: Mus musculus
PROTOCOL: Tested for its effect on testes weight 3 days after single oral dose (90 mg/kg)
Type: functional, Testis

{"COMPOUND": "Cc1ccc([C@@H]2c3cc(C)ccc3[C@H]3CNCC[C@@H]23)cc1.Cl", "TARGET OR SYSTEM": "Mus musculus", "Reduction": "-3%"}
{"COMPOUND": "CCCN1CC[C@H]2[C@H](c3ccc(C)cc3)c3cc(C)ccc3[C@H]2C1.Cl", "TARGET OR SYSTEM": "Mus musculus", "Reduction": "11%"}
{"COMPOUND": "CCN1CC[C@H]2[C@H](c3ccc(O)cc3)c3cc(C)ccc3[C@H]2C1.Cl", "TARGET OR SYSTEM": "Mus musculus", "Reduction": "-1%"}
{"COMPOUND": "CCN1CCC(C(O)c2ccc(C)cc2)C(c2ccc(C)cc2)C1.Cl (stereo in doubt; 16b)", "TARGET OR SYSTEM": "Mus musculus", "Reduction": "0%"}

====

Tested on: Mus musculus
PROTOCOL: Tested for its effect on spermatogenic index 3 days after single oral dose (90 mg/kg),
Type: functional
PROPERTY: Reduction (%)

{"MOLECULE": "CCN1CC[C@H]2[C@H](c3ccccc3)c3cc(C)ccc3[C@H]2C1.Cl", "MEASURED NUMBER": -9}
{"MOLECULE": "CCN1CC[C@H]2[C@H](c3ccc(F)cc3)c3cc(C)ccc3[C@H]2C1.Cl", "MEASURED NUMBER": -5}
{"MOLECULE": "CCN1CC[C@H]2[C@H](c3cccc(C)c3)c3cc(C)ccc3[C@H]2C1.Cl", "MEASURED NUMBER": -9}
{"MOLECULE": "CCN1CCC(C(O)c2ccc(C)cc2)C(c2ccc(C)cc2)C1.Cl (stereo in doubt; 16b)", "MEASURED NUMBER": 0}
{"MOLECULE": "CCCN1CC[C@H]2[C@H](c3ccc(C)cc3)c3cc(C)ccc3[C@H]2C1.Cl", "MEASURED NUMBER": 0}
{"MOLECULE": "CCN1CC[C@@H]2[C@@H](c3ccc(C)cc3)c3cc(C)ccc3[C@H]2C1.Cl", "MEASURED NUMBER": 0}
{"MOLECULE": "CCN1CC[C@H]2[C@H](c3ccc(O)cc3)c3cc(C)ccc3[C@H]2C1.Cl", "MEASURED NUMBER": -5}
{"MOLECULE": "CCN1CCC(C(O)(c2ccc(C)cc2)c2ccc(C)cc2)CC1.Cl", "MEASURED NUMBER": 0}
{"MOLECULE": "CCN1CC[C@H]2[C@H](c3ccccc3C)c3cc(C)ccc3[C@H]2C1.Cl", "MEASURED NUMBER": -9}
{"MOLECULE": "Cc1ccc([C@@H]2c3cc(C)ccc3[C@H]3CN(C)CC[C@@H]23)cc1.Cl", "MEASURED NUMBER": -3}
{"MOLECULE": "CCN1CC[C@H]2[C@H](c3ccc(C)cc3)c3cc(C)ccc3[C@H]2C1.Cl", "MEASURED NUMBER": 5}
{"MOLECULE": "CCN1CC[C@H]2[C@H](c3ccc(C#N)cc3)c3cc(C)ccc3[C@H]2C1.Cl", "MEASURED NUMBER": -4}
{"MOLECULE": "CCN1CC[C@H]2[C@H](c3ccccc3)c3ccccc3[C@H]2C1.Cl", "MEASURED NUMBER": 2}
{"MOLECULE": "CCN1CCC(=C(c2ccc(C)cc2)c2cccc(C)c2)CC1.Cl", "MEASURED NUMBER": 0}
{"MOLECULE": "CCN1CC[C@H]2[C@H](c3ccc(C(=O)OC)cc3)c3cc(C)ccc3[C@H]2C1.Cl", "MEASURED NUMBER": -5}
{"MOLECULE": "CCN1CC[C@H]2[C@H](c3ccc(CO)cc3)c3cc(C)ccc3[C@H]2C1.Cl", "MEASURED NUMBER": -5}
{"MOLECULE": "Cc1ccc([C@@H]2c3cc(C)ccc3[C@H]3CNCC[C@@H]23)cc1.Cl", "MEASURED NUMBER": -5}
